Test system: HOP-62 NSCLC
Experiment: NCI tumour cell line growth inhibition, 48 h
outcome measure: TGI (µM)
Numbers only, in µM.

Answered cases to consult:
1. CC(=O)Oc1ccc(/C=C/C(=O)O[C@H]2CCCC[C@@H]2OC(=O)/C=C/c2ccc(OC(C)=O)c(OC(C)=O)c2)cc1OC(C)=O = 32.2
2. CC(=O)N1c2ccccc2C(C)C1c1[nH]c2ccccc2c1C (stereo not given) = 36.6
3. O=C(/C=C/c1ccccc1Cl)c1ccc(Cl)cc1Cl = 42.1

Problem: For the molecule shown here, C[C@]1(O)O[C@@H]2OCC[C@@H]2C2=C1C(=O)c1ccccc1C2=O , give the reported TGI.
Solution: 26.7
